test: Antiproliferative activity against human HL60 cells after 72 hrs by (3-(4,5-dimethylthiazol-2-yl)-2,5-diphenyltetrazolium bromide test; type: functional, cell-based; conditions: HL-60, 72 h
OBSERVED_PROPERTY: IC50 (µM)

smiles_str=CCOC(=O)c1oc2c(OC)cccc2c1Nc1cc(OC)c(OC)c(OC)c1 result=0.59
smiles_str=CCOC(=O)c1oc2ccc(OC)cc2c1Nc1cc(OC)c(OC)c(OC)c1 result=3.4
smiles_str=COC(=O)c1oc2c(OC)cccc2c1Nc1cc(OC)c(OC)c(OC)c1 result=0.32
smiles_str=COC(=O)c1oc2ccccc2c1Nc1cc(OC)c(OC)c(OC)c1 result=4.4
smiles_str=CCOc1cccc2c(Nc3cc(OC)c(OC)c(OC)c3)c(C(=O)OC)oc12 result=4.2
smiles_str=CCOC(=O)c1oc2ccccc2c1Nc1cc(OC)c(OC)c(OC)c1 result=2.5
smiles_str=COC(=O)c1oc2cc(OC)ccc2c1Nc1cc(OC)c(OC)c(OC)c1 result=0.005
smiles_str=COC(=O)c1oc2ccc(OC)cc2c1Nc1cc(OC)c(OC)c(OC)c1 result=0.47
smiles_str=COc1ccc(/C=C\c2cc(OC)c(OC)c(OC)c2)cc1O result=0.001
smiles_str=CCOC(=O)c1oc2c(OCC)cccc2c1Nc1cc(OC)c(OC)c(OC)c1 result=5.5
